Tested on: RPMI-8226 leukemia
Assay: NCI tumour cell line growth inhibition, 48 h; in the data active means GI50 below about 0.43 µM; inactive means the rest
Outcome (select one): active, inactive

## Task Answer briefly: the call reported for CCCCCCCCCCCCCCCCOCCCOP(=O)(O)C1CCCN(O)C1=O (stereo not drawn) in this assay.
## Result inactive

## Task Please indicate how the test categorized CC1(C)C2CCC13C(=O)C1OC3(C2)C2C(=O)c3c(O)ccc(O)c3C(=O)C12 (stereo not drawn) .
## Result inactive

----------
Recorded GI50, one value per entry.
Test system: TK-10 renal
Test: NCI tumour cell line growth inhibition, 48 h

Entry CO[C@H]1CC[C@@]2(C)C(=CC[C@H]3[C@@H]4C[C@H](O)C[C@@]4(C)CC[C@@H]32)C1 , TK-10 renal data, GI50 value: 4740 nM

COc1cc2c(cc1OC)[C@@]1(C)C(=O)c3cc4c(cc3[C@H]1N(C)C2=O)OCO4 tested on TK-10 renal gave GI50: 67300 nM

TK-10 renal assay, compound CCNc1nc(N2CC(=O)Nc3cc(OC)ccc32)c2ccccc2n1 , recorded GI50 = 82.2 nM

Reported GI50 (TK-10 renal) for entry COc1ccc(Nc2ccnc(NCCCNc3ccnc4cc(Cl)ccc34)n2)cc1 is 1540 nM

Fill in: TK-10 renal GI50 for CCCCCCCCCCCCCCCCOCCCOP(=O)(O)C1CCCN(O)C1=O (stereo unspecified) = 738 nM
